Numbers sourced from paper PMC12864922.

- MEASUREMENT TARGET: TDP-43 (Homo sapiens, UniProt Q13148 1-414)
- Sequence (Q13148 whole entry): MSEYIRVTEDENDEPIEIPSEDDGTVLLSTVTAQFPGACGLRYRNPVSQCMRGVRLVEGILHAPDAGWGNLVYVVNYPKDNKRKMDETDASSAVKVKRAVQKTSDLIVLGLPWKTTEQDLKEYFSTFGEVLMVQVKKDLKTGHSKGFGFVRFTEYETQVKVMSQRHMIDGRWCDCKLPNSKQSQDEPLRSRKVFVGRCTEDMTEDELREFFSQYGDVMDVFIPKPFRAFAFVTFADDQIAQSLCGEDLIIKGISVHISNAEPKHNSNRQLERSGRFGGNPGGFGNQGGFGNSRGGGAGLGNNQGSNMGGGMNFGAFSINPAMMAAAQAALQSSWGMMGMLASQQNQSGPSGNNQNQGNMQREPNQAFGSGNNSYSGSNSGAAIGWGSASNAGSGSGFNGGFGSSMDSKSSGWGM
- ASSAY INFO: RNA Bind-n-Seq with designed 260-mer pool; 25 mM Tris-HCl, 150 mM KCl, 3 mM MgCl2, BSA (printed 500 mg/mL), 20 units/mL SUPERase IN; pH not stated; 500 nM RNA pool, 1 h, 4 C; TDP-43 5, 50, 500 nM; high values mean tight binding
- CONDITION CONTEXT: protein: recombinant; tags: SBP (GST cleaved off with PreScission; pGEX-GST-SBP)
Whole data set: some 9,900 sequences, median “r (bound/input frequency ratio)” near 0.7, cut for the highest 2% near 6.5. What follows is part of a selection rich in the highest values, with near analogues and random picks from the rest.
MEASURE: binding signal

ENSMUSG00000029028.66|Lrrc47 (ssRNA) RNA: GGGAGUUCUACAGUCCGACGAUCGCUUCGAUAUCCGCAUGCUAAGAUGUCUGUGUAGGUGUGGAUAUGCUGUAGGUAUCUGGGUGUGCUGUAGGUGUCUGUGUGGGUGUGGGUGUGCUGUGGGUGUCUGUGUGGGUGUGCUGUAGGUGUCUGUAGGUGUGGGUAUGCUGCAGGUGUGGGUGUGCUGUAGAUCUCUAUAGGUGUGGGUGUGCUGUAGGGGUCUGUGUGGGUAUAGGUGUGGGUGUGCUGUAGAUUCUGUGUAACUGGUUCUUUGCUGUUUCUCUGGGUGUUUUAAGGUGUCUGCCUCUUGCGGUCGCACUAGUGUGGAAUUCUCGGGUGUCAAGG; 4.75 R (bound/input frequency ratio)
